Measured Kd, listed per entry for reference.
Biological target: T1, EsCas13d, nuclease-dead (Eubacterium siraeum, UniProt B0MS50, R295A;H300A;R849A;H854A)
T1 sequence: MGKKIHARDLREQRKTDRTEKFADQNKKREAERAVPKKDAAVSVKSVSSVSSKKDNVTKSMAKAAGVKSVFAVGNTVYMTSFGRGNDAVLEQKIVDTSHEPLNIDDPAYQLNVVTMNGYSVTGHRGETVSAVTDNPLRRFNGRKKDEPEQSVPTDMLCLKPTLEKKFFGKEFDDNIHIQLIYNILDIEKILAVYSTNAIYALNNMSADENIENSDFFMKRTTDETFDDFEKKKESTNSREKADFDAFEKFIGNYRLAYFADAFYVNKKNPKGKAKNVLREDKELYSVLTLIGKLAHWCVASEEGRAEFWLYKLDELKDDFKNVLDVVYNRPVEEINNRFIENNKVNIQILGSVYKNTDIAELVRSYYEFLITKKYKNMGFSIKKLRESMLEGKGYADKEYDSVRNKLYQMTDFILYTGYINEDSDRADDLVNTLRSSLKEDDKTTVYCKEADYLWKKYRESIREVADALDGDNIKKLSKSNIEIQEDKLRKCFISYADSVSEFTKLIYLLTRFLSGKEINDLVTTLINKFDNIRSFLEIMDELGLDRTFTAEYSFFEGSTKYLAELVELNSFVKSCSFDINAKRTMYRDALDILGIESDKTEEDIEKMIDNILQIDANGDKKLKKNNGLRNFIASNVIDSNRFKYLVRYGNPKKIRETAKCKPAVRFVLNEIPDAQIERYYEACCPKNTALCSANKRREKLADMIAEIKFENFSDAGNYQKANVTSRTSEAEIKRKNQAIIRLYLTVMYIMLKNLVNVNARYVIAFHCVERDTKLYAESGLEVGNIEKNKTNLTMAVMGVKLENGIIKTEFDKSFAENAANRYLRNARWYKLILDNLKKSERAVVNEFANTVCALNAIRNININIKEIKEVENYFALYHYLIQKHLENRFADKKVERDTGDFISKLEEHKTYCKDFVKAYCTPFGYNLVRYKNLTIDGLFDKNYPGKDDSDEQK
Test: crRNA (strand 1, pre-loaded); Mg2+; 40 mM Tris-HCl pH 7.5, 150 mM NaCl, 6 mM MgCl2, 1 mM DTT, 0.1% Tween-20, 0.2 mg/ml BSA; 25 C; 10 min per concentration, then washed
Conditions: tags: His6-TwinStrep-SUMO cleaved; N-terminal SNAP kept (SNAP-Surface 488); label: 3' end held by stalled T7 RNA polymerase
Form entry: value (nM) — number only.

[[record]]
binder = "target 1 insG 3' of 21,insA 3' of 5 (mixed) RNA 1: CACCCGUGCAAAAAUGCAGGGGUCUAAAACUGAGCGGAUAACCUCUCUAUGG RNA 2: GGGAAUGGAUCCACAUCUACGAAUUCGUACCGAUAGAGAGGUUAUCCGACUCACCGAGAUCGGAAGAGCACACGU"
endpoint_unit = "nM"
numeric_readout = 37


Consider target 1 complement block 4-6 (mixed) RNA 1: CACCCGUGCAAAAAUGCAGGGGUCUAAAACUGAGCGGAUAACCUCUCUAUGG RNA 2: GGGAAUGGAUCCACAUCUACGAAUUCGUACCAUAGAGAGGUUAUCGCGUCACCGAGAUCGGAAGAGCACACGU . Its measured Kd is 4.95
